- Tested on: HSkMC
- measurementNotes: cytotoxicity call (relative viability < 0.9)
- measurementContext: 10 µM
Hit rate of the full screen: of about 39,000 compounds, about 1,500 (3.8%) were called active. For the sample, actives were picked, then their nearest neighbours and some compounds at random.
Could you please pick one outcome from this set? y for active, n for inactive

Qu. # outcome recorded in this test, key = "C[C@H]1CN([C@@H](C)CO)C(=O)c2cc(NC(=O)Nc3ccc(F)cc3)ccc2O[C@H]1CN(C)CC1CCCCC1"
Ans. n

Qu. // same read-out, input: "C[C@H]1CN([C@@H](C)CO)C(=O)c2cc(NC(=O)Nc3ccc(C(F)(F)F)cc3)ccc2O[C@@H]1CN(C)CC1CCCCC1"
Ans. n

Qu. Quick one: "Cc1ccc(S(=O)(=O)Nc2ccc3c(c2)C(=O)N([C@H](C)CO)C[C@H](C)[C@@H](CN(C)S(C)(=O)=O)O3)cc1"
Ans. n

Qu. What do you have for "C[C@@H]1CN([C@H](C)CO)C(=O)c2cc(NC(=O)Nc3ccc(C(F)(F)F)cc3)ccc2O[C@@H]1CN(C)CC1CCCCC1" ?
Ans. y

Qu. Okay, and "COc1ccc(CN(C)C[C@@H]2OCCCC[C@@H](C)Oc3ccc(NS(=O)(=O)c4ccc(F)cc4)cc3C(=O)N([C@H](C)CO)C[C@@H]2C)cc1" ?
Ans. n

Qu. Then what about the compound "C[C@@H]1CN([C@H](C)CO)C(=O)c2cc(NC(=O)Nc3ccc(C(F)(F)F)cc3)ccc2O[C@H]1CN(C)CC1CCCCC1" ?
Ans. n

Qu. Now the same for "C[C@@H]1CN([C@H](C)CO)C(=O)c2cc(NC(=O)Nc3ccc(F)cc3)ccc2O[C@H]1CN(C)CC1CCCCC1"
Ans. n

====

- Test system: HSkMC (human skeletal muscle cells)
- measurementNotes: cytotoxicity call (relative viability < 0.9)
- measurementContext: 10 µM
The whole screen tested about 39,000 compounds, of which about 1,500 (3.8%) were called active. The list comes from a sample in which actives are over-represented; it also holds close analogues and randomly drawn compounds.
propertyName: cytotoxicity call

Answered examples (5):
smilesString | propertyName | reportedResult
COc1ccc(NC(=O)Nc2cccc3c2O[C@H](CN(C)Cc2ccc(-c4ccccc4)cc2)[C@@H](C)CN([C@@H](C)CO)C3=O)cc1 | cytotoxicity call | active
C=CCNC1=C2C[C@@H](C)C[C@H](OC)[C@H](O)[C@@H](C)/C=C(\C)[C@H](OC(N)=O)[C@@H](OC)/C=C\C=C(/C)C(=O)NC(=CC1=O)C2=O | cytotoxicity call | active
C=CCNC1=C2C[C@H](C)C[C@H](OC)[C@@H](O)[C@H](C)/C=C(\C)[C@H](OC(N)=O)[C@H](OC)/C=C/C=C(\C)C(=O)NC(=CC1=O)C2=O | cytotoxicity call | active
COc1ccc(NC(=O)Nc2cccc3c2O[C@@H](CN(C)Cc2ccc(-c4ccccc4)cc2)[C@@H](C)CN([C@H](C)CO)C3=O)cc1 | cytotoxicity call | inactive
COC1=C2C[C@H](C)C[C@H](OC)[C@@H](O)[C@H](C)/C=C(\C)[C@H](OC(N)=O)[C@H](OC)/C=C/C=C(\C)C(=O)NC(=CC1=O)C2=O | cytotoxicity call | inactive

Below: the item to evaluate.
Qu. # input compound: "COC1=C2C[C@@H](C)C[C@H](OC)[C@H](O)[C@@H](C)/C=C(\C)[C@H](OC(N)=O)[C@@H](OC)/C=C/C=C(\C)C(=O)NC(=CC1=O)C2=O" ; wanted: its cytotoxicity call
Ans. active

Sourced from the antibiotic and cytotoxicity screens of Wong et al. (2023)
